measurementDescription: Aqueous solubility of the drugs
Format: physicochemical
experimentalSetup: aqueous medium (not specified further)
measuredMetric: solubility

>>> df
                               recordsmiles       result
0  CCOC(=O)N1c2ccc(C(F)(F)F)cc2[C@@H](N(Cc2cc(C(F)(F)F)cc(C(F)(F)F)c2)C(=O)OC)C[C@H]1CC  < 0.1 µg/mL

---

measurementDescription: Aqueous solubility of the drugs
Format: physicochemical
experimentalSetup: aqueous medium (not specified further), free base form
measuredMetric: solubility

In [3]: df
Out[3]:
                               recordsmiles       result
0  O=C1Cc2cc(CCN3CCN(c4nsc5ccccc45)CC3)c(Cl)cc2N1  < 0.1 µg/mL

---

measurementDescription: Aqueous solubility of the drugs
Type: physicochemical
experimentalSetup: aqueous medium (not specified further), hydrochloride salt form
measuredMetric: solubility

>>> df
                               recordsmiles  measuredmetric     result
0  O=C1Cc2cc(CCN3CCN(c4nsc5ccccc45)CC3)c(Cl)cc2N1      solubility  ~10 µg/mL
